# Tested target: human OX2 receptor (Homo sapiens, UniProt O43614)
# Construct: expressed in transfected cells
# Sequence (O43614 1-444): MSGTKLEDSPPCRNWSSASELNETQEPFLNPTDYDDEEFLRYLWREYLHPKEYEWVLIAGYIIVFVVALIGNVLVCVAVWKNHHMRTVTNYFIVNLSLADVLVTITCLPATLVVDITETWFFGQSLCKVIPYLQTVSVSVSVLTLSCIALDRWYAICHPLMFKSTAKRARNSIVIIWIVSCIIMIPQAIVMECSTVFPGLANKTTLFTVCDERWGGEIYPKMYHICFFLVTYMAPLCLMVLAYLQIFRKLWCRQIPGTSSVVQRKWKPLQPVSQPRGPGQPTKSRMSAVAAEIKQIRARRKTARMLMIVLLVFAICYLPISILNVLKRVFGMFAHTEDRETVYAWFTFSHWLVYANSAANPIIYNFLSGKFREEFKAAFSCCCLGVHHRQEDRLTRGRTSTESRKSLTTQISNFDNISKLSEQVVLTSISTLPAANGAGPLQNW
# Protocol details: Measurement of orexin type 2 receptor agonist activity (Experimental Example 2; Fluo-4 AM calcium fluorescence, FDSS μCELL)
# Assay type: cell-based
# Setup conditions: compound at 3 μM; CHO cells expressing human OX2 receptor; DMSO = 0%, 10 nM orexin A (human) = 100%
Measurement label: OX2R agonist activity (3 μM, %)
Write the number in % without appending the unit.

Field: example entries. Status: answers known.
molecule="CCS(=O)(=O)N[C@@H]1[C@@H]2Cc3cc(ccc3F)Oc3nc(ccc3C)CNC(=O)N2CC1(F)F (relative stereo) [Example 90]" reported_measurement=108
molecule="CS(=O)(=O)N[C@@H]1[C@@H]2Cc3cccc(c3F)Oc3nc(ccc3C3CC3)CNC(=O)N2CC1(F)F [Example 88]" reported_measurement=109
molecule="CS(=O)(=O)N[C@H]1CCN2C(=O)NCc3ccc(Cl)c(n3)Oc3cccc(c3)C[C@@H]12 [Example 16]" reported_measurement=99
molecule="CCS(=O)(=O)N[C@H]1[C@@H](F)CN2C(=O)NCc3ncc(C)c(n3)Oc3cccc(c3F)C[C@@H]12 [Example 55]" reported_measurement=107
molecule="CCS(=O)(=O)N[C@@H]1[C@@H]2Cc3cccc(c3F)Oc3nc(ccc3C(F)F)CNC(=O)N2CC1(F)F [Example 29]" reported_measurement=100
molecule="CS(=O)(=O)N[C@H]1[C@@H](F)CN2C(=O)NCc3ccc(C(F)F)c(n3)Oc3cccc(c3F)C[C@@H]12 [Example 18]" reported_measurement=104

Proceed to the following item.
CCS(=O)(=O)N[C@H]1[C@@H](F)CN2C(=O)NCc3ccc(Cl)c(n3)Oc3cccc(c3)C[C@@H]12 [Example 47] has a reported OX2R agonist activity (3 μM, %) of 92
